- SYSTEM NAME: cynomolgus PD-1 antigen protein of the affinity-maturation screen (cynomolgus)
- PROTOCOL SUMMARY: capture ELISA, second-round affinity-maturation screen (scFv format likely); unit not given
Sorting guide: entries reporting Bmax beneath 1 go in the true pile, the rest go in the false pile.

# input Determine whether this binder shows Bmax lower than 1 (ties excluded): L1I (antibody, V domains shown, also called L11) VH: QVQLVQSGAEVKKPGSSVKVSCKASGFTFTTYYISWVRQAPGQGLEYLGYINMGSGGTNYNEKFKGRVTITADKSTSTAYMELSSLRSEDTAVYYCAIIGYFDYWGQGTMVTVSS VL: DVVMTQSPLSLPVTLGQPASISCRSSQSLLDSDGNTYLYWFQQRPGQSPRRLIYLVSTLGSGVPDRFSGSGSGTDFTLKISRVEAEDVGVYYCMQLTHAPYTFGQGTKLEIK
# output true

# input Does the reported Bmax of 2G4 (antibody, human IgG4, V domains shown) VH: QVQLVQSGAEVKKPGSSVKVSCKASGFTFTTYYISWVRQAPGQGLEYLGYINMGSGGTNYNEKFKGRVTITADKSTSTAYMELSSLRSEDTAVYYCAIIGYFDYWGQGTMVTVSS VL: DVVMTQSPLSLPVTLGQPASISCRSSQSLLDSDGSTYLYWFQQRPGQSPRRLIYLVSTLGSGVPDRFSGSGSGTDFTLKISRVEAEDVGVYYCMQLTHWPYTFGQGTKLEIK stay below 1?
# output false

# input Just wondering, is Bmax of 5C4 (antibody, V domains shown) VH: QVQLVQSGAEVKKPGSSVKVSCKASGFTFTTYYISWVRQAPGQGLEYLGYINMGSGGTNYNEKFKGRVTITADKSTSTAYMELSSLRSEDTAVYYCAILGYFDYWGQGTMVTVSS VL: DVVMTQSPLSLPVTLGQPASISCRSSQSLLDSDGQTYLYWFQQRPGQSPRRLIYLVSTLGSGVPDRFSGSGSGTDFTLKISRVEAEDVGVYYCMQLTHEPYTFGQGTKLEIK below 1?
# output true

# input Bench note: check whether 2C2 (antibody, human IgG4, V domains shown) VH: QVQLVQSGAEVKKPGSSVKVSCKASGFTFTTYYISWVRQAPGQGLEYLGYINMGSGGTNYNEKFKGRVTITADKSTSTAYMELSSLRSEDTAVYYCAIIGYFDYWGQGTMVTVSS VL: DVVMTQSPLSLPVTLGQPASISCRSSQSLLDSDGATYLYWFQQRPGQSPRRLIYLVSTLGSGVPDRFSGSGSGTDFTLKISRVEAEDVGVYYCMQLTHWPYTFGQGTKLEIK shows Bmax below 1
# output false

# input Lab note: Bmax threshold 1. Does this binder come in strictly under it? 8C10 (antibody, V domains shown) VH: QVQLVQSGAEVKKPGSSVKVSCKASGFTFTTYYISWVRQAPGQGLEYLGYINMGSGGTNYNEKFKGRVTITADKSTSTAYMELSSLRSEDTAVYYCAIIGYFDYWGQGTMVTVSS VL: DVVMTQSPLSLPVTLGQPASISCRSSQSLLDSDGQTYLYWFQQRPGQSPRRLIYLVSTLGSGVPDRFSGSGSGTDFTLKISRVEAEDVGVYYCMQLTHENYTFGQGTKLEIK
# output false
